Tested on: Plasmodium berghei
Test: Screen against P. berghei liver stage (PbLuc), transformed with Luciferase, at 10uM
Assay type: functional, HepG2
Conditions: tested at 10 uM
Screen size: about 69,000 compounds; about 8,600 (12%) showed an effect of 50% or more. Many of the other results were omitted from the sample, so strong results are more common in it than they were.
RECORDED_METRIC: INHIBITION (%)

> print(dat)
                                    compound  measurement.unit  endpoint.value
 1      O=C(NCCNc1ncccn1)N1CCN(Cc2cccnc2)CC1                 %            57.8
 2  O=C(NC1CC1)c1cc(C(F)(F)F)cc(C(=O)NC2CC2)n1                 %            5.21
 3        O=C(NCCn1ccnc1)N1CCN(Cc2cccnc2)CC1                 %           -33.7
 4  CC(Cn1cccn1)NC(=O)N1CCN(Cc2ccncc2)CC1 (configuration not stated)                 %           -4.94
 5        Cc1nn(C)c(N(C)C)c1CNCCCNS(C)(=O)=O                 %           -66.8
 6                  O=C(NCCNc1cnccn1)N1CCCC1                 %            19.4
 7  Cc1ccc(C(C)N(C)Cc2nc3c(cnn3C)c(=O)[nH]2)s1 (configuration not stated)                 %          -30.38
 8  COCCS(=O)(=O)NC(C)c1cccc(C)c1C (configuration not stated)                 %            48.2
 9  CN(C)C[C@]12COC[C@H]1CN(C(=O)CCc1ccccc1)C2                 %            6.66
10  Cc1cnn(CC2CCCN2CC(=O)NCc2ccccn2)c1 (configuration not stated)                 %           -28.9
11      O=C(NCCNc1cnccn1)N1CCN(Cc2cccnc2)CC1                 %            65.5
12  O=S(=O)(CC1CCCCO1)Nc1cnn(CC(F)F)c1 (configuration not stated)                 %            9.76
